Test: Permeability of the compound after 5 hrs by PAMPA
Format: ADME
Conditions: read-out: permeability
MEASUREMENT_TYPE: Papp at 5 h

- QUERY_SMILES: "COc1ccccc1OC[C@@H](O)CO"
  RECORDED_RESULT: "8.2 ×10⁻⁶ cm/s"

// query Please give the measured Papp at 5 h for this molecule: COc1ccccc1OC[C@H](O)CO
// result 6.3 ×10⁻⁶ cm/s
